Recorded IC50, one value per entry.
- tgt: UniProtKB Q86YT5
- assay details: Recombinant hSLC13A5/14C-citrate uptake assay
- Type: cell-based
- condition context: HEK293 Flp-In cells over-expressing hSLC13A5; WGA-PVT SPA beads; 14C-citrate approx. 2 μM; 4 h

Known IC50 results, listed for orientation:
O=C(NCc1ccc(Cl)cn1)C1CCN(S(=O)(=O)c2cc(Cl)cc(Cl)c2)CC1 : 132 nM
Cc1cc(Br)cc(S(=O)(=O)N2CCC(C(=O)NCc3ccc(F)cn3)CC2)c1 : 232 nM
O=C(NCc1ccc(F)cn1)C1CCN(S(=O)(=O)c2cc(Cl)cc(Cl)c2)CC1 : 392 nM
CCOc1cc(Cl)cc(S(=O)(=O)N2CCC(C(=O)NCc3ccc(C#N)cc3F)CC2)c1 : 127 nM
O=C(NCc1ccc(F)cn1)C1CCN(S(=O)(=O)c2cc(Br)cc(Br)c2)CC1 : 54 nM
Cc1cc(C)cc(S(=O)(=O)N2CCC(C(=O)NCc3nc(C)cs3)CC2)c1 : 438 nM

We next turn to a different compound, shown below.
Entry CCc1ccc(CNC(=O)C2CCN(S(=O)(=O)c3cc(Br)cc(Br)c3)CC2)nc1 , IC50 reported as 41 nM

---

- tgt: hSLC13A5 (Homo sapiens)
- assay details: HepG2/14C-citrate uptake assay
- Assay type: cell-based
- Design: HepG2 cells endogenously express hSLC13A5 transporter which is responsible for the uptake of citrate into these cells; endogenous in cells; host or cells: HepG2
- condition context: HepG2 cells endogenously expressing hSLC13A5; Cytostar-T; 14C-citrate ~1.8 μM; incubation over night
endpoint name: pIC50
pIC50 is a log-scale quantity: -log10 of the concentration expressed in molar.

Completed entries (count: 5):
O=C(NCc1ccc(Br)cc1)C1CCN(S(=O)(=O)c2cc(Br)cc(Br)c2)CC1 : 7.85
O=C(NCc1ccc(F)cn1)C1CCN(S(=O)(=O)c2cc(Cl)cc(Cl)c2)CC1 : 6.63
O=C(NCc1ccc(Cl)cc1F)C1CCN(S(=O)(=O)c2cc(Cl)cc(Cl)c2)CC1 : 7.43
CCOc1cc(Cl)cc(S(=O)(=O)N2CCC(C(=O)NCc3ccc(Cl)cn3)CC2)c1 : 7.29
CCc1ccc(CNC(=O)C2CCN(S(=O)(=O)c3cc(C)cc(Br)c3)CC2)nc1 : 7.57

response.value for COc1ccccc1CNC(=O)C1CCN(S(=O)(=O)c2cc(Cl)cc(Cl)c2)CC1 (field: pIC50) = 7.19

What the record says about Cc1cc(Br)cc(S(=O)(=O)N2CCC(C(=O)NCc3ccc(F)cn3)CC2)c1 : pIC50 is 7.00

Kindly note the recorded pIC50 for COc1ncccc1CNC(=O)C1CCN(S(=O)(=O)c2cc(Cl)cc(Cl)c2)CC1 , which is 6.70

---

- tgt: hSLC13A5 (Homo sapiens, UniProt Q86YT5)
- Sequence (Q86YT5 whole entry): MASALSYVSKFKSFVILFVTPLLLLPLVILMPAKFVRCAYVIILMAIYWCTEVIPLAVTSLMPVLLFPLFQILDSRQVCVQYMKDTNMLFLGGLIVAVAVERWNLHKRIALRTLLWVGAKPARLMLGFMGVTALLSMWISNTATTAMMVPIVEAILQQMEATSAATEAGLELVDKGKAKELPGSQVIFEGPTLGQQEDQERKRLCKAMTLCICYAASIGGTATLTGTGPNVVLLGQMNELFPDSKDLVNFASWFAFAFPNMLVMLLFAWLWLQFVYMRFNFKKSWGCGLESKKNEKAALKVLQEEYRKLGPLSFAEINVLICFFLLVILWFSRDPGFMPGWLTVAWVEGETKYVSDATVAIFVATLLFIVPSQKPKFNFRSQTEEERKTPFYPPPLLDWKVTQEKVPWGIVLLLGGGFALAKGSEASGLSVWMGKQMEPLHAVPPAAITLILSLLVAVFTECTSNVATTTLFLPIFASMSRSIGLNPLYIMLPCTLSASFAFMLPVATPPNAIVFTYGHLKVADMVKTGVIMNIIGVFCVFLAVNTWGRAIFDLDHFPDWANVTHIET
- assay details: HepG2/14C-citrate uptake assay
- Type: cell-based
- Parameters: HepG2 cells endogenously express hSLC13A5 transporter which is responsible for the uptake of citrate into these cells; endogenous in cells; host or cells: HepG2
- condition context: HepG2 cells endogenously expressing hSLC13A5; Cytostar-T; 14C-citrate ~1.8 μM; incubation over night
endpoint name: pIC50
Remember the convention: pIC50 equals -log10 of concentration in molar.

Some compounds with recorded pIC50:
O=C(NCc1cccc(Cl)n1)C1CCN(S(=O)(=O)c2cc(Cl)cc(Cl)c2)CC1 [(I-26)] : 6.54
O=C(NCc1ccccn1)C1CCN(S(=O)(=O)c2cc(Cl)cc(Cl)c2)CC1 [(I-11)] : 6.34
COc1ccccc1CNC(=O)C1CCN(S(=O)(=O)c2cc(C)cc(C)c2)CC1 [(I-44)] : 6.88

Documented pIC50 of Cc1csc(CNC(=O)C2CCN(S(=O)(=O)c3cc(Br)cc(Br)c3)CC2)n1 [(I-29)] : 7.37

Documented pIC50 of CCc1ccc(CNC(=O)C2CCN(S(=O)(=O)c3cc(Cl)cc(Cl)c3)CC2)nc1 [(I-17)] : 6.89
